tested on: COLO 205 colon; experiment: NCI tumour cell line growth inhibition, 48 h
assay-metric: TGI

**Query** Need TGI of `COc1ccc(-n2c(=S)sc3c(Cl)nc(C)nc32)c(OC)c1` , thanks.
**Result** 13.3 µM

**Query** Note, next up: Cc1cccc(C2NC(=O)c3ccccc3N2)c1 (stereo not given)
**Result** > 100 µM

**Query** Note, next up: `O=C(CNc1ccccc1C(=O)O)Nn1cnc2ccc(S(=O)(=O)Nc3ccccc3C(=O)O)cc2c1=O`
**Result** > 100 µM

**Query** Note, next up: Cc1nc2c(Br)cc(Br)cc2c(=O)n1-c1ccccc1NC1OC(CO)C(O)C(O)C1O (stereo not given)
**Result** > 100 µM

**Query** Note, next up: `CCOC(=O)Nc1ccc2nc(-c3cscn3)[nH]c2c1`
**Result** 18.9 µM

**Query** Note, next up: `CC(=O)C(=Cc1cn(C)c(=O)n(C)c1=O)C(C)=O`
**Result** 189 µM

**Query** Note, next up: `C1=CC(=P(c2ccccc2)(c2ccccc2)c2ccccc2)C=C1`
**Result** 14.8 µM

**Query** Note, next up: `O=C1Nc2ccccc2/C1=C\c1c(Cl)n(-c2ccccc2)c2ccccc12`
**Result** 4.13 µM

**Query** Note, next up: `N/N=C(/Cc1ccccc1)NNO`
**Result** > 100 µM

**Query** Note, next up: `CCC[CH2][Sn-]([CH2]CCC)([CH2]CCC)[O]C(=O)C(C)C`
**Result** 0.274 µM

**Query** Note, next up: `O=C1NC(=NCCc2ccc(Cl)cc2)S/C1=C\c1ccc2ncccc2c1`
**Result** > 25 µM

**Query** Note, next up: Cc1cc(=O)[nH]c(NNC(C#N)c2cccc([N+](=O)[O-])c2)n1 (stereo not given)
**Result** > 100 µM

**Query** Note, next up: O=C1NC(O)n2c(=O)[nH]c(=O)n21 (stereo not given)
**Result** > 100 µM

**Query** Note, next up: COc1c2ccoc2nc2c(OC)c(OCC(O)C(C)(C)O)ccc12 (stereo not given)
**Result** > 100 µM

**Query** Note, next up: `O=C(CC1=Nc2nnc(CCCCCCCc3nnc4n3C(=O)C(CC(=O)c3ccc5ccccc5c3)=N4)n2C1=O)c1ccc2ccccc2c1`
**Result** > 100 µM

**Query** Note, next up: Cn1/c(=N\N=C2\C=C3CCCCC3(C)CC2)sc2ccccc21 (stereo not given)
**Result** > 100 µM

**Query** Note, next up: `COc1ccc2c(c1)C(=O)c1c-2c(OCCCN(C)C)nc2cc(Br)ccc12`
**Result** > 100 µM

**Query** Note, next up: CCC1(O)CC(CCN(Cc2ccccc2)C(=O)OCc2ccccc2)C(OCc2ccccc2)C1O (stereo not given)
**Result** 34.2 µM

**Query** Note, next up: O=C1CC23CCCCCCCCCCC2(C1)CC(=O)C3 (stereo not given)
**Result** 33.5 µM

**Query** Note, next up: `CCOC(=O)c1cc(-c2ccc(OC)cc2)c([N+](=O)[O-])[nH]1`
**Result** > 10 µM

**Query** Note, next up: `O=c1c(-c2ccc3c(c2)OCO3)coc2c3c(ccc12)OCO3`
**Result** > 100 µM

**Query** Note, next up: COC(=N)C1(C#N)NC(c2ccsc2)C(C#N)(C#N)NC1c1ccsc1 (stereo not given)
**Result** > 100 µM

**Query** Note, next up: `COc1cc(CCNC2=CC(=O)c3nc[nH]c3C2=O)ccc1O`
**Result** 56.5 µM

**Query** Note, next up: N[C@@H](CCC(=O)NC(Cc1ccccc1)C(=O)NCP(=O)(O)O)C(=O)O (stereo not given in full)
**Result** > 100 µM

**Query** Note, next up: COc1ccc(N2C(=O)C3c4[nH]c5c(C)cccc5c4C4CCC(C(C)C)CC4C3C2=O)cc1 (stereo not given)
**Result** > 100 µM

**Query** Note, next up: C=C(NC(=O)C(=C)NC(=O)c1ccc2c(n1)-c1coc(n1)C(=C)NC(=O)C(=C)NC(=O)c1nc(oc1C)C(=C)NC(=O)C(C(C)(C)O)NC(=O)C(=C)NC(=O)c1coc(n1)/C(=C/C)NC(=O)[C@H]([C@@H](C)O)NC(=O)c1csc-2n1)C(N)=O (stereo not given in full)
**Result** > 87.5 µM

**Query** Note, next up: COc1cc(/C=N/NC(=O)c2cnn3c2NC(c2ccccc2)C3)ccc1OC1CCCC1 (stereo not given)
**Result** 7.53 µM

**Query** Note, next up: `Cn1c(COC(=O)NCCc2ccccn2)nc2c(N3CCOCC3)nc(Cl)nc21`
**Result** 3.61 µM

**Query** Note, next up: O=C(c1ccccc1)C1N=NN(Cc2ccccc2[N+](=O)[O-])C1C(=O)c1ccccc1 (stereo not given)
**Result** > 100 µM

**Query** Note, next up: `COC1(OC)C2(Cl)C3=CCCC=C3C1(Cl)C(Cl)=C2Cl`
**Result** 37.7 µM

**Query** Note, next up: `COc1ccc(-n2cc(-c3ccc(OC)c(OC)c3)[nH]c2=O)cc1`
**Result** > 100 µM

**Query** Note, next up: `Cc1ccc(/C(=N/Nc2ccc([N+](=O)[O-])cc2)Sc2cc(Cl)c(C)cc2S(N)(=O)=O)cc1`
**Result** > 23.2 µM

**Query** Note, next up: `Clc1ccc2c(NCCCCCCNc3ccnc4cc(Cl)ccc34)ccnc2c1`
**Result** 4.62 µM

**Query** Note, next up: `O=C(Nc1ccccc1)N1CCN(C(=O)Nc2ccccc2)C1=S`
**Result** > 100 µM

**Query** Note, next up: `Nc1c(C(=O)c2ccc(Cl)c(Cl)c2)[nH]c(NCc2ccccc2)c1C(=S)Nc1ccccc1`
**Result** 3.79 µM

**Query** Note, next up: `O=[N+]([O-])c1ccc(-n2nc3ccc4nonc4c3n2)cc1`
**Result** > 100 µM

**Query** Note, next up: `CC(C)(C)C(=O)Nc1c(C=O)ccc2[nH]cnc12`
**Result** > 100 µM

**Query** Note, next up: COC(=O)C1CC(c2ccc(OC)c(OC)c2)OC1=O (mixture of isomers)
**Result** > 100 µM

**Query** Note, next up: `COc1ccc(-c2ccc(C(=O)C=P(c3ccccc3)(c3ccccc3)c3ccccc3)cc2)cc1`
**Result** 13.9 µM

**Query** Note, next up: `COC(=O)C1=C(CCCCO[Si](C)(C)C(C)(C)C)NC(=O)N2[C@H](CCOCc3ccccc3)CC[C@@H]12`
**Result** > 100 µM
